B1: Cytoplasmic polyadenylation element-binding protein 2, residues 513 to 575; numbered along this chain, Q7Z5Q1 (parent)
chain: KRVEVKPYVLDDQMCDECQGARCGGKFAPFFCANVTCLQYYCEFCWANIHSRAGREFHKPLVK

variants of: B1; experiment: abundance fitness (aPCA) (normalised: wild type 0, dead -1); higher = more abundant; growth selection in yeast, the domain comes from the species named; details: Homo sapiens
measurement.label: abundance fitness
Just the number.

>>> result("F27Y")
-0.202
>>> result("A53E")
0.082
>>> result("V35A")
0.039

INPUT: Consider the variant R22N and give its recorded abundance fitness.
OUTPUT: -0.032

INPUT: Using known records, supply abundance fitness for Q19C
OUTPUT: -0.22

INPUT: Check the records and state abundance fitness for V3I
OUTPUT: -0.041
